Record form. Attribute: pIC50. Fill in for each entry.
- TARGET_OR_TEST_SYSTEM: rat mGluR5 (Rattus norvegicus, UniProt P31424)
- Sequence (P31424 21-1203): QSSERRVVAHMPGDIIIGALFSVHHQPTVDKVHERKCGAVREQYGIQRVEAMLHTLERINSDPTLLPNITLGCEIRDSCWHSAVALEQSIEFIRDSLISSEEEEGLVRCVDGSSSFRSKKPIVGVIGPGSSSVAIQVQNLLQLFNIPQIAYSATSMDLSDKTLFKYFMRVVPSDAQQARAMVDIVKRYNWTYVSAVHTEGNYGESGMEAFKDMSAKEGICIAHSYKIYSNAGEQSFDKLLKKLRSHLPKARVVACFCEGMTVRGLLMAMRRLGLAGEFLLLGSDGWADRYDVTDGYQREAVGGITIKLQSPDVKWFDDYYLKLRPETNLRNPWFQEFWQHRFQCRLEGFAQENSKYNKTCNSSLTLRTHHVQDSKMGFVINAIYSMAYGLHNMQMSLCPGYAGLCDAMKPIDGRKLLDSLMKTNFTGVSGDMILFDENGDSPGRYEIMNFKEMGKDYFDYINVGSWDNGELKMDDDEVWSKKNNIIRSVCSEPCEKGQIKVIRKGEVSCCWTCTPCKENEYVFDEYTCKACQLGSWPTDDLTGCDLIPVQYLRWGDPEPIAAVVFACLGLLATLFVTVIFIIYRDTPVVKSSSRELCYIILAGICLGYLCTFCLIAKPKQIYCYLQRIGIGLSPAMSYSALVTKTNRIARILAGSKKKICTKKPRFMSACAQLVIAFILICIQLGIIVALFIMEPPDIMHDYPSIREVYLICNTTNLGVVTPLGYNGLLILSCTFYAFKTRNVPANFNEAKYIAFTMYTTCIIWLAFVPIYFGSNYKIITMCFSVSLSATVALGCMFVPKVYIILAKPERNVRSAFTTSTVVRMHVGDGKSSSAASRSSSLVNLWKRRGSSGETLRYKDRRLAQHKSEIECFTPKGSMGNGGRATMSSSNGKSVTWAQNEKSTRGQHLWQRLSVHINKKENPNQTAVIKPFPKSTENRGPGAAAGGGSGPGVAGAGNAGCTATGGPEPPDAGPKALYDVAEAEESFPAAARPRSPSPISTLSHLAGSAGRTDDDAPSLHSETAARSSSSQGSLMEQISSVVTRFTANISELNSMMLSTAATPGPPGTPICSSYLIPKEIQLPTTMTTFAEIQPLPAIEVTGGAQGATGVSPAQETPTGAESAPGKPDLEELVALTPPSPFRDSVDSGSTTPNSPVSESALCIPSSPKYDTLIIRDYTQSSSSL
- TEST_DESCRIPTION: mGluR5 calcium flux assay in HEK 293A cells, negative allosteric modulation of glutamate EC80 response
- ASSAY_CONDITIONS: HEK cells transfected with rat mGluR5; glutamate EC80; ± is standard error of at least three experiments
pIC50: −log10 of the molar value.

Ask: Would you mind telling me what pIC50 value was observed for `CCCS(=O)(=O)N1CC(Oc2cc(C)nc(C(=O)Nc3ccc(F)cn3)c2)C1` ?
Reply: < 5.00

Ask: Then what about the compound `CCS(=O)(=O)N1CC(Oc2cc(C)nc(C(=O)Nc3ccc(F)cn3)c2)C1` ?
Reply: < 5.00

Ask: What do we get for `Cc1cc(OC2CS(=O)(=O)C2)cc(C(=O)Nc2nc(C)cs2)n1` ?
Reply: 6.41
